Assay: molar heat capacity at constant pressure
Conditions: 288 K; 101.33 kPa; Crystal; Large sample (1 g) DSC
measured-metric: molar heat capacity at constant pressure (J/K/mol)
Respond with the bare value in J/K/mol.

Dear colleague, I am looking for the recorded molar heat capacity at constant pressure of the following compound: CC(C)(C)C(N)=O [2,2-dimethylpropanamide]
161.1

Input CCCCCCCCCCCCCCCCCCCCCC(N)=O [docosanamide]
548.1

CC(C)C(N)=O [2-methylpropanamide] , same question.
148.5

Do the same for CCCC(N)=O [butanamide] please
143.7

* * *

Assay: molar heat capacity at constant pressure
Conditions: 243 K; 101.33 kPa; Crystal 2; Large sample (1 g) DSC
Checkbox rule: molar heat capacity at constant pressure lower than 200 J/K/mol = MET; molar heat capacity at constant pressure not lower than 200 J/K/mol = NOT MET.

# check: molar heat capacity at constant pressure < 200 J/K/mol for CCCCCCCCCCCCCCCCCC(N)=O [octadecanamide]
NOT MET

Same question for CCCCCCCCCCCC(N)=O [dodecanamide] please.
NOT MET

Do the same for CCCCCC(N)=O [hexanamide] please
MET

Now try CCCCCCCC(N)=O [octanamide] .
NOT MET

How about CCCCCCCCCCCCCCCC(N)=O [hexadecanamide] ?
NOT MET

* * *

Assay: molar heat capacity at constant pressure
Settings: 298 K; 101.33 kPa; Crystal; Large sample (1 g) DSC
Would you mind telling me the reported molar heat capacity at constant pressure of each entry?
Dear colleague, please return just the value in J/K/mol, with no unit written.

Look at this compound and give its reported molar heat capacity at constant pressure. CC(C)(C)C(N)=O [2,2-dimethylpropanamide]
163.7

Follow-up item: CCCCCCCCCCCCCCCCCCCCCC(N)=O [docosanamide]
568.7

Next compound: CCCC(N)=O [butanamide]
147.7

Proceed to CC(C)C(N)=O [2-methylpropanamide]
152.4

* * *

Test: molar heat capacity at constant pressure
Details: 223 K; 101.33 kPa; Crystal 2; Large sample (1 g) DSC
For each record, write down the corresponding molar heat capacity at constant pressure.
Please reply with the bare figure in J/K/mol and do not write the unit itself.

# query: molar heat capacity at constant pressure of entry CCCCC(N)=O [pentanamide]
154

Also CCCCCCCCCCCCCCCC(N)=O [hexadecanamide] , if possible.
282.8

Try CCCCCCCC(N)=O [octanamide] next.
224.4

Then CCCCCC(N)=O [hexanamide] ?
146.7

Then what about the compound CCCCCCCCCCCCCCCCCC(N)=O [octadecanamide] ?
345.2

Please do the same for CCCCCCCCCCCC(N)=O [dodecanamide] as well.
237.5

* * *

Assay: molar heat capacity at constant pressure
Settings: 238 K; 101.33 kPa; Crystal; Large sample (1 g) DSC
measured-metric: molar heat capacity at constant pressure (J/K/mol)
Supply the numeric figure in J/K/mol, leaving out any unit text.

Given CC(C)C(N)=O [2-methylpropanamide] , state its recorded molar heat capacity at constant pressure.
124.8

What do you have for CC(C)(C)C(N)=O [2,2-dimethylpropanamide] ?
137.9

Would you kindly repeat that for CCCCCCCCCCCCCCCCCCCCCC(N)=O [docosanamide] ?
439.8

CCCC(N)=O [butanamide] , same question.
120.8

* * *

Test: molar heat capacity at constant pressure
Settings: 273 K; 101.33 kPa; Crystal; Large sample (1 g) DSC
For each entry below, report its molar heat capacity at constant pressure value.
The reply should contain only the number, in J/K/mol.

Quick one: molar heat capacity at constant pressure for CC(C)(C)C(N)=O [2,2-dimethylpropanamide] ?
153.8

Record: CCCC(N)=O [butanamide]
136.8

Consider next the molecule CC(C)C(N)=O [2-methylpropanamide] in the same way.
141.9

Also check CCCCCCCCCCCCCCCCCCCCCC(N)=O [docosanamide]
511.9

* * *

What molar heat capacity at constant pressure was measured for each of the following?
Assay: molar heat capacity at constant pressure
Settings: 268 K; 101.33 kPa; Crystal; Large sample (1 g) DSC
Numbers after ± are expanded uncertainties.
Include the unit after the number when you answer.

So what does the record say about molar heat capacity at constant pressure for CC(C)(C)C(N)=O [2,2-dimethylpropanamide] ?
150.9 ± 2.5 J/K/mol

Proceed to CCCCCCCCCCCCCCCCCCCCCC(N)=O [docosanamide]
500.2 ± 7.8 J/K/mol

And the next one, CCCC(N)=O [butanamide] ?
135 ± 2.1 J/K/mol

Same read-out for CC(C)C(N)=O [2-methylpropanamide] ?
138.8 ± 2.7 J/K/mol

* * *

Experiment: molar heat capacity at constant pressure
Conditions: 248 K; 101.33 kPa; Crystal 2; Large sample (1 g) DSC
Binary classification by molar heat capacity at constant pressure, with 300 J/K/mol as an inclusive lower bound for 1; all other cases are 0.

Please check the record CCCCC(N)=O [pentanamide] and state if its molar heat capacity at constant pressure is at or above 300 J/K/mol.
0

Then CCCCCCCCCCCCCCCC(N)=O [hexadecanamide] ?
1

How about this compound: CCCCCCCC(N)=O [octanamide]
0

Next compound up: CCCCCCCCCCCCCCCCCC(N)=O [octadecanamide]
1

Okay, and CCCCCCCCCCCC(N)=O [dodecanamide] ?
0

Entry to check: CCCCCC(N)=O [hexanamide]
0

* * *

Experiment: molar heat capacity at constant pressure
Settings: 258 K; 101.33 kPa; Crystal; Large sample (1 g) DSC
Provide the reported molar heat capacity at constant pressure of each item.
Write down the numeric answer in J/K/mol and omit the unit.

Quick one: molar heat capacity at constant pressure of CC(C)C(N)=O [2-methylpropanamide] ?
134.6

Entry CCCCCCCCCCCCCCCCCCCCCC(N)=O [docosanamide] please
480.5

Same question, CCCC(N)=O [butanamide] this time
130.2

Query CC(C)(C)C(N)=O [2,2-dimethylpropanamide] next
147.5

* * *

Test: molar heat capacity at constant pressure
Conditions: 248 K; 101.33 kPa; Crystal; Large sample (1 g) DSC
Would you kindly list molar heat capacity at constant pressure for each of these compounds?
Only the number, expressed in J/K/mol, is required.

Would you mind telling me what molar heat capacity at constant pressure value was observed for CC(C)C(N)=O [2-methylpropanamide] ?
130.8

Now the compound CC(C)(C)C(N)=O [2,2-dimethylpropanamide]
142.8

And CCCCCCCCCCCCCCCCCCCCCC(N)=O [docosanamide] ?
461.3

Another compound to check: CCCC(N)=O [butanamide]
125.9

* * *

Test: molar heat capacity at constant pressure
Details: 293 K; 101.33 kPa; Crystal; Large sample (1 g) DSC
For each of the compounds below, state its molar heat capacity at constant pressure.
Lab book: enter the figure in J/K/mol, no units written.

Returns the measured molar heat capacity at constant pressure for the input compound. Input: CCCCCCCCCCCCCCCCCCCCCC(N)=O [docosanamide]
561.1

Continue with CCCC(N)=O [butanamide]
146.4

Moving on to the next compound: CC(C)C(N)=O [2-methylpropanamide]
150.9

And what about the compound CC(C)(C)C(N)=O [2,2-dimethylpropanamide] ?
163

* * *

Assignment: determine reported molar heat capacity at constant pressure for the given molecules.
Assay: molar heat capacity at constant pressure
Conditions: 263 K; 101.33 kPa; Crystal 2; Large sample (1 g) DSC
Numbers after ± are expanded uncertainties.

Entry CCCCCCCCCCCC(N)=O [dodecanamide] : reported molar heat capacity at constant pressure = ?
280.8 ± 4.4 J/K/mol

Moving on to the next molecule: CCCCC(N)=O [pentanamide]
191.6 ± 3.2 J/K/mol

Another molecule to look at: CCCCCCCCCCCCCCCC(N)=O [hexadecanamide]
340.1 ± 5.5 J/K/mol

Now the same for CCCCCCCC(N)=O [octanamide]
238.3 ± 3.7 J/K/mol

Next molecule: CCCCCCCCCC(N)=O [decanamide]
236.4 ± 3.7 J/K/mol

* * *

Experiment: molar heat capacity at constant pressure
Details: 228 K; 101.33 kPa; Crystal 2; Large sample (1 g) DSC
± gives the expanded uncertainty stated by the source.
measured-metric: molar heat capacity at constant pressure
Remember to follow the number with its unit.

Query (molecule): CCCCCCCCCCCC(N)=O [dodecanamide] ; field requested: molar heat capacity at constant pressure
242.2 ± 3.9 J/K/mol

And what about the molecule CCCCC(N)=O [pentanamide] ?
162.5 ± 2.5 J/K/mol

Now try CCCCCC(N)=O [hexanamide] .
150.8 ± 2.4 J/K/mol

What do we get for CCCCCCCCCCCCCCCC(N)=O [hexadecanamide] ?
289 ± 4.8 J/K/mol

One more molecule: CCCCCCCC(N)=O [octanamide]
228.2 ± 3.5 J/K/mol

Also check CCCCCCCCCCCCCCCCCC(N)=O [octadecanamide]
353.1 ± 5.5 J/K/mol

* * *

Assay: molar heat capacity at constant pressure
Conditions: 228 K; 101.33 kPa; Crystal; Large sample (1 g) DSC
measured-metric: molar heat capacity at constant pressure (J/K/mol)
Number only, in J/K/mol; omit the unit.

Name the recorded molar heat capacity at constant pressure for CC(C)C(N)=O [2-methylpropanamide] .
120.3

Same question, CCCC(N)=O [butanamide] this time
116

Also CC(C)(C)C(N)=O [2,2-dimethylpropanamide] , if possible.
133.4

And then CCCCCCCCCCCCCCCCCCCCCC(N)=O [docosanamide] , what is it?
420.4
